Biological target: Steroid hormone receptor ERR1 (Homo sapiens) (UniProt P11474)
Sequence (P11474 whole entry, looked up): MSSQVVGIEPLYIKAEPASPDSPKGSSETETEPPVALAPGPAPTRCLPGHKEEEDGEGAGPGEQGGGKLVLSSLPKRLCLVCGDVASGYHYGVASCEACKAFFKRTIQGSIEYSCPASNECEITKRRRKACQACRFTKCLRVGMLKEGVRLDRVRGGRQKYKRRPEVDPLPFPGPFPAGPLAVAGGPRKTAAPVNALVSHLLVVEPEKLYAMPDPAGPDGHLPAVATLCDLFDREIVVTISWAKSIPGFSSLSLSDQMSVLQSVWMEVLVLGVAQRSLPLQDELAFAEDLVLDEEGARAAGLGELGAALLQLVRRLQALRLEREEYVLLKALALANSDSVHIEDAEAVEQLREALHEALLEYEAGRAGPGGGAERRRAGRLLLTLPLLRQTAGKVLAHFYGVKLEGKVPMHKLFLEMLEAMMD
Assay: ATG_ERRa_TRANS: Attagene TRANS-FACTORIAL HepG2 Assay for human Estrogen-Related Receptor alpha (ERRa) (AID 2282971)
Settings: HepG2 Attagene TRANS reporter, ERRa transactivation
Records with an inconclusive call do not appear. The source made the active and inactive calls. How the source made its calls: active means hit-call score of the fitted dose curve at least 0.9, where 1 is the maximum; inconclusive means response in the unintended direction; inactive means score below 0.9.
measure: outcome

# smiles_representation, measure, recorded_result
data = [
    ("c1ccc(B(c2ccccc2)c2ccccc2)cc1", "outcome", "inactive"),
    ("CCc1c(Br)c(Br)c(Br)c(Br)c1Br", "outcome", "inactive"),
    ("FC(F)(F)C(F)(F)C(F)(F)C(F)(F)C(F)(F)C(F)(F)C(F)(F)C(F)(F)CCS", "outcome", "inactive"),
    ("FC(F)(F)C(F)(F)C(F)(F)C(F)(F)C(F)(F)C(F)(F)C(F)(F)I", "outcome", "inactive"),
    ("CCCCCC=O", "outcome", "inactive"),
    ("C=C(C)C(=O)OCC(F)(F)C(F)(F)C(F)(F)C(F)(F)C(F)(F)C(F)(F)C(F)(F)F", "outcome", "inactive"),
    ("Cc1cc(C)cc(O)c1", "outcome", "inactive"),
    ("O=C(O)C(F)(F)C(F)(F)C(F)(F)C(F)(F)C(F)(F)C(F)(F)C(F)(F)C(F)(F)C(F)(F)C(F)(F)C(F)(F)C(F)(F)C(F)(F)F", "outcome", "inactive"),
    ("FC(F)(F)C(F)(F)C(F)(F)CI", "outcome", "inactive"),
    ("C=CC/C=C/C/C=C/C/C=C/C", "outcome", "inactive"),
    ("OCC(F)(F)C(F)(F)C(F)(F)F", "outcome", "inactive"),
    ("FC(F)(F)C(F)(F)C(F)(F)C(F)(F)C(F)(F)CCI", "outcome", "inactive"),
]

* * *

Biological target: Nuclear receptor subfamily 1 group I member 2 (Homo sapiens)
Assay: ATG_PXR_TRANS: Attagene TRANS-FACTORIAL HepG2 Assay for human Pregnane X Receptor (PXR) (AID 2283008)
Records with an inconclusive call do not appear. Calls of active or inactive are those of the source. How the source made its calls: active means hit-call score of the fitted dose curve at least 0.9, where 1 is the maximum; inconclusive means response in the unintended direction; inactive means score below 0.9.
Possible outcomes: active, inactive

# compound, assigned_label
rows = [
    ("CCCCCCCCCCCCCCCC[N+](C)(C)Cc1ccccc1", "inactive"),
    ("CCCCC(CC)COP(=O)(O)OCC(CC)CCCC (stereo not drawn)", "active"),
    ("CCCCCCOC(=O)c1ccccc1O", "inactive"),
    ("O=C(O)C(F)(OC(F)(F)C(F)(OC(F)(F)C(F)(F)C(F)(F)F)C(F)(F)F)C(F)(F)F (stereo not drawn)", "inactive"),
    ("Nc1cc(Cl)c(N)c(Cl)c1", "active"),
    ("Oc1ccc(Nc2ccccc2)cc1", "active"),
    ("O=C(O)C(F)(F)C(F)(F)F", "inactive"),
    ("COC(=O)CCC(F)(F)C(F)(F)C(F)(F)C(F)(F)F", "inactive"),
    ("CC(C)(C)c1ccc(OC2CCCCC2O)cc1 (stereo not drawn)", "active"),
    ("Nc1ccc(S(=O)(=O)Nc2nccs2)cc1", "inactive"),
    ("C=C(C)C(=O)OCC(F)(F)C(F)(F)C(F)(F)C(F)(F)C(F)(F)C(F)(F)C(F)(F)F", "inactive"),
    ("O=C(O)C=C(C(F)(F)F)C(F)(F)F", "inactive"),
    ("CCCCCCS", "inactive"),
]
